# Test target: Thermococcus sp. DNA polymerase R671S/K677S/K712S R671S,K677S,K712S (Thermococcus sp.)
# Sequence: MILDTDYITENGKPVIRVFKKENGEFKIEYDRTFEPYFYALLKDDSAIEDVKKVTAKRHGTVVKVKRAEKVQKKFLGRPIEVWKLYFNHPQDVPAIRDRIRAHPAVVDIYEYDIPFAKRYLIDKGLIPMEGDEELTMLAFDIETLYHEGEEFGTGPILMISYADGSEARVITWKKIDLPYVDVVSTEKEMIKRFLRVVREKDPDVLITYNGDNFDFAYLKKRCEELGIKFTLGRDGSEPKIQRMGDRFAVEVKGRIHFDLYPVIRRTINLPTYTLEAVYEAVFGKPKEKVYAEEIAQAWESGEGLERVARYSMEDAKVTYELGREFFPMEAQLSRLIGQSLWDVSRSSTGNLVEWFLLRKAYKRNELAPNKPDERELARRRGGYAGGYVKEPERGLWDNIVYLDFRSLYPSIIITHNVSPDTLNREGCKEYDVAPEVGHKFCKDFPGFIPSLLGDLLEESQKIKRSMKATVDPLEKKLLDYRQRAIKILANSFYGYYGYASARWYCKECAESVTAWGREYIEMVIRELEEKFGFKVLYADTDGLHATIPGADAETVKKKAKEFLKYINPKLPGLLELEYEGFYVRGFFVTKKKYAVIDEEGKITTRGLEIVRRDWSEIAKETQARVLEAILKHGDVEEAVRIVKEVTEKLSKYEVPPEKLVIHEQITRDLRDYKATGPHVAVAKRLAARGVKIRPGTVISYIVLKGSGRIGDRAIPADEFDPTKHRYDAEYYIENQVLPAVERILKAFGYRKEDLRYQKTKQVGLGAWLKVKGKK
# Measurement protocol: EMSA
# Measurement parameters: EMSA as for Taq, 1x TAE with 2 mM EDTA
Each item that follows carries a reported Kd.
Numeric only. Scale: nM

**Q:** Name the recorded Kd for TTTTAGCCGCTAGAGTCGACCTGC / GGAGACAAGCTTGTATGCCTGCAGGTCGACTCTAGCGGCTAAAA [24/44 nt template-primer duplex] .
**A:** 110

**Q:** Name the recorded Kd for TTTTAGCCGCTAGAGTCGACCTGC [24 nt primer] .
**A:** 310
